- System: SARS-CoV-2 Wuhan-Hu-1 NTD (SARS-CoV-2, UniProt P0DTC2)
- Protocol Notes: cell-based or functional assay
Provide the recorded neutralisation IC50, WT (293TAce2) for the entries that follow.

JN021 (antibody, V domains shown) VH: QLQLQESGPGLVKPSETLSLTCTVSGGSIRSRGYYWGWIRQPPGKGLEWIGSIDYSGSTYYNPSLKSRVTISVDTSKNQFSLKLNSVTAADTAVFYCASSADTYYDILTGYYKGWYIDYWGQGTLVTVSS VL: LTQPRSVSGSPGQSVTISCAGTSSDVGGYNYVSWYQQHPGKAPKLMIFDVTKRPSGVPDRFSGSKSGNTASLTISGLQAEDDADYYCCSYAGSYTYWVFGGGTKLTVL; > 1000 ng/mL

Problem: Give its neutralisation IC50, WT (293TAce2) value. Item: JN220 (antibody, V domains shown) VH: VQLVESGGGVVQPGRSLRLSCAASGFTFSSYTMHWVRQAPGKGLEWVAVISYDGSNKYYADSVKGRFTISRDNSKNTLYLQMNSLRAEDTAVYYCAISSGWYSMSGAFDIWGQGTMVTVSS VL: QSALTQPRSVSGSPGQSVTISCTGTSSDVGGYNYVSWYQQHPGKAPKLMIYDVSKRPSGVPDRFSGSKSGNTASLTISGLQAEDEADYYCCSYAGSYRVFGTGTKVTVL
Solution: > 1000 ng/mL
